- EXPERIMENTAL_SYSTEM: canine IL-31
- Sequence (as listed by the source): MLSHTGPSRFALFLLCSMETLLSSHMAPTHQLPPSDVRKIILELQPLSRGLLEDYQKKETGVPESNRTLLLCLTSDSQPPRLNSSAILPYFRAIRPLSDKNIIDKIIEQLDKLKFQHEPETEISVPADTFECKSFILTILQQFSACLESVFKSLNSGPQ
- TEST_NAME: Affinity of anti-IL-31 antibodies by surface plasmon resonance (Biacore), canine IL-31 surface
- Assay type: binding
- CONDITIONS: IL-31 conjugated to the surface (FIG. 2)
ENDPOINT_LABEL: affinity (KD) to canine IL-31

INSERT INTO results (molecule, result) VALUES
  ('Feline 15H05 1.1_FW1_2: FEL_15H05_VH1 with FEL_15H05_VL1_FW1_FW2 (antibody, V domains shown) VH: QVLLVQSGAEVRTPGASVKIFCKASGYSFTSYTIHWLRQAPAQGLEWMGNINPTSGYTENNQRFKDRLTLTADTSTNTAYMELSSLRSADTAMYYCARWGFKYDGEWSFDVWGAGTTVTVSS VL: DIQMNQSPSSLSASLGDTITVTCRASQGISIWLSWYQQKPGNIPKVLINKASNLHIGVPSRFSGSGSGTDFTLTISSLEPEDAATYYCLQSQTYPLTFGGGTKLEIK', 'good affinity'),
  ('Feline 15H05 1.1 FW1_3: FEL_15H05_VH1 with FEL_15H05_VL1_FW1_FW3 (antibody, V domains shown) VH: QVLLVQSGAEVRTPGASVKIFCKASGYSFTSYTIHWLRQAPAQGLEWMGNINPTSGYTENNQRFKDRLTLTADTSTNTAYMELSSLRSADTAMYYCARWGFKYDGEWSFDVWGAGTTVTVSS VL: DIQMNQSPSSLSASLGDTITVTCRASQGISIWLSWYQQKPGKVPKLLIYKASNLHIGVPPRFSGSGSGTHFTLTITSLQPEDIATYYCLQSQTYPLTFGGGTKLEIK', 'good affinity');

Where these numbers come from: patent US11433139B2
